Catalogue of log10 of IC50 readings, one per entry.
# Tested Target: wild type PRC2 (wtPRC2) complex (Homo sapiens, UniProt O75530)
# Sequence (O75530 whole entry): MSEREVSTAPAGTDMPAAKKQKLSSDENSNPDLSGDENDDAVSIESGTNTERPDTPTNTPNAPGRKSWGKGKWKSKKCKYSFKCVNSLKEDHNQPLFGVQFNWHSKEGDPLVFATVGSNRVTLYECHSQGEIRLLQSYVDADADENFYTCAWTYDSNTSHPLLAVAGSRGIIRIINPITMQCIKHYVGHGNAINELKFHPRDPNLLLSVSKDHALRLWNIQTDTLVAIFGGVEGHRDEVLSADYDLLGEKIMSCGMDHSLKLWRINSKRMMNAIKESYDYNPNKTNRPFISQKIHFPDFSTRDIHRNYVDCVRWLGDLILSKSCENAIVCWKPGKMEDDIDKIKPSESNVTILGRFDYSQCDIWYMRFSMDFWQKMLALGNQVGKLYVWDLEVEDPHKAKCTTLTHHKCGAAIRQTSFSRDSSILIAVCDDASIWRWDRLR
# Sequence (Q15910 whole entry partner): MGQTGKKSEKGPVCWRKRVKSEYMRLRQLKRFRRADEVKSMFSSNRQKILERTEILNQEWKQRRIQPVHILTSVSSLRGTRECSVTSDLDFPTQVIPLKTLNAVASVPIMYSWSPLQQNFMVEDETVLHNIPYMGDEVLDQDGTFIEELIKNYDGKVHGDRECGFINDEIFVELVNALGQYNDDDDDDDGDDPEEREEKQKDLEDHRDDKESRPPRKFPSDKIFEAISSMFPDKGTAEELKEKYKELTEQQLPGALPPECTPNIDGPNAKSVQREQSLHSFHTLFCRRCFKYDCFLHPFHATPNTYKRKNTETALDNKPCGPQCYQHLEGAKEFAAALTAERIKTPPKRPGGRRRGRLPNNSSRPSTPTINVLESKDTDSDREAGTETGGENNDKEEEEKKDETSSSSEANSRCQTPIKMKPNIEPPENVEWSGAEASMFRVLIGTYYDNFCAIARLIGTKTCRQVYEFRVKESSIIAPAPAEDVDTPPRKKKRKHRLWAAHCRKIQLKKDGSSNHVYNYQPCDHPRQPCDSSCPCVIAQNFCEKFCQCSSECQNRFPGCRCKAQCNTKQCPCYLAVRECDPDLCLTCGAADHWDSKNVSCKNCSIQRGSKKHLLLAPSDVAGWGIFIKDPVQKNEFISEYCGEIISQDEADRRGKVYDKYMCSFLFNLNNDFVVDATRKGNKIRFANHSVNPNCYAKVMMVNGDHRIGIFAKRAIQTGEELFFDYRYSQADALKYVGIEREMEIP
# Sequence (Q15022 whole entry partner): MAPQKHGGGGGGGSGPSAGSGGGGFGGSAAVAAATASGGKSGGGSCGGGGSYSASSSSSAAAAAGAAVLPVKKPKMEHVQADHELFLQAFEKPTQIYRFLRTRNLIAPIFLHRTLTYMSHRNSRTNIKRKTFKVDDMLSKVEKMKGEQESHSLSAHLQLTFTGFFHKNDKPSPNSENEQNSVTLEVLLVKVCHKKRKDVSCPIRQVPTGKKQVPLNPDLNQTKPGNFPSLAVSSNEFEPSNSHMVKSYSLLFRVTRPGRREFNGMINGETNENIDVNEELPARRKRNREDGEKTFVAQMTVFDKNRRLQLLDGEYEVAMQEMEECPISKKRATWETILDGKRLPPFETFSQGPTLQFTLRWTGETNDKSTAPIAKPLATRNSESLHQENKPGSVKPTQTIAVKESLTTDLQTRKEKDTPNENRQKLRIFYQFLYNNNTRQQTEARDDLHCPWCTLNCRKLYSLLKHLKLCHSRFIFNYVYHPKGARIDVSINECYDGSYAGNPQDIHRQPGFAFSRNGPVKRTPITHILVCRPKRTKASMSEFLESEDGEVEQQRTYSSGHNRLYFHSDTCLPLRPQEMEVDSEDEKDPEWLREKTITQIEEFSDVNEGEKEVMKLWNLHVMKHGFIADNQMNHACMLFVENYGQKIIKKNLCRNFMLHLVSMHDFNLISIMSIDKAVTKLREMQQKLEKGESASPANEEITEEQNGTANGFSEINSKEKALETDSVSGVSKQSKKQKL
# Sequence (Q09028 whole entry partner): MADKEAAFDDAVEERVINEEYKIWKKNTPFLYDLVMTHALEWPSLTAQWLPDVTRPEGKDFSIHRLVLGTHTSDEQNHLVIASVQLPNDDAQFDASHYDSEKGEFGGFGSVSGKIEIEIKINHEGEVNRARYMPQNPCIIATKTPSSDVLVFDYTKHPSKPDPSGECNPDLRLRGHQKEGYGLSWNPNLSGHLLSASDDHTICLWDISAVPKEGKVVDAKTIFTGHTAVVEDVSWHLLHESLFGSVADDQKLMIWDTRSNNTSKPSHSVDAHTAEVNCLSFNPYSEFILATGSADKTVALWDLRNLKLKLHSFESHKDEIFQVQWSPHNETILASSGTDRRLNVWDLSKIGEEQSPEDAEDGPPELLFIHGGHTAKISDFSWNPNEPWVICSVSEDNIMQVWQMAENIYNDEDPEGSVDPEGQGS
# Sequence (Q6ZN18 whole entry partner): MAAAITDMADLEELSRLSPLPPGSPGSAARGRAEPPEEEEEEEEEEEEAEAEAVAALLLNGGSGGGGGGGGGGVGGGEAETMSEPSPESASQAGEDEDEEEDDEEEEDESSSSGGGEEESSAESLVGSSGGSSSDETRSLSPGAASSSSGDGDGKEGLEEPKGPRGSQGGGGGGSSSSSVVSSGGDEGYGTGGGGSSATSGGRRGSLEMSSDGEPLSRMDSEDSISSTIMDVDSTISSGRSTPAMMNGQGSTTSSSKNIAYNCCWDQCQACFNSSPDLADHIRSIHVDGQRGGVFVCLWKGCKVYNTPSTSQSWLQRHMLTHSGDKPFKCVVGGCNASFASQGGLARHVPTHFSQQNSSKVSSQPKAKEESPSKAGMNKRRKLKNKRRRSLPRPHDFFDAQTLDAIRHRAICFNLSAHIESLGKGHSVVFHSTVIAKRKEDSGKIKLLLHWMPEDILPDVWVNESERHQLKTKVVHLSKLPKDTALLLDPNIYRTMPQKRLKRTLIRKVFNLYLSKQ
# Method Description: EED LC-MS assay (SAH production by PRC2)
# Assay type: biochemical
# Condition Info: read-out: (b) IC50, EED LC-MS Qualified
A value of 2 here means IC50 of 100 in nM, since values are log10.

Field: example entries. Status: answers known.
Record "COc1cccc(F)c1CNc1ccc(-n2cc(C)nc2C)c2nncn12" : what is its log10 of IC50 with wild type PRC2 (wtPRC2) complex (Homo sapiens, UniProt O75530)?
1.06

# query: log10 of IC50 | item "COc1cccc(F)c1CNc1ccc(-c2cccnc2)c2nncn12" | system: wild type PRC2 (wtPRC2) complex (Homo sapiens, UniProt O75530)
1.96

Observed log10 of IC50 on wild type PRC2 (wtPRC2) complex (Homo sapiens, UniProt O75530) for "COc1cccc(F)c1CNc1ccc(-c2ccc(F)nc2)c2nncn12" , please.
2.01

Next:
Query the reported log10 of IC50 for wild type PRC2 (wtPRC2) complex (Homo sapiens, UniProt O75530); item: "COc1ccccc1CNc1ccc(-c2ccccc2F)c2nncn12"
3.12

Provide the documented log10 of IC50 with wild type PRC2 (wtPRC2) complex (Homo sapiens, UniProt O75530) as the system for "COc1cccc(F)c1CNc1ccc(-c2ccc(N3CCN(C(C)C)CC3)nc2)c2nncn12"
1.80

###

# Test system: H3K27 methylation in G401 cell
# Method Description: ELISA (H3K27 methylation) assay in G401 cells
# Assay type: cell-based, human
# Condition Info: Homo sapiens, G-401, H3K27 methylation ELISA, read-out: (c) IC50 ELISA Qualified
Reported pIC50 values for a set of molecules
# reply with the number alone; pIC50 is -log10 of concentration in mol/L

// returns reported pIC50 for input "COc1cccc(Cl)c1CNc1ccc(-c2cccnc2C)c2nncn12"
6.50

Quick check: pIC50 of "COc1cc(C)c(-c2ccc(NCc3c(F)cccc3OC)n3cnnc23)cn1" ?
7.76

Please look up its pIC50: "COc1cccc(F)c1CNc1ccc(-c2cnccc2C(F)F)c2nncn12"
7.78

What pIC50 value was documented for this molecule, "COc1cccc(F)c1CNc1ccc(-c2ccc(F)cc2C)c2nncn12" ?
7.14

Can you look up the measured pIC50 of "COc1cccc(F)c1CNc1ccc(-c2cccnc2CF)c2nncn12" for me?
8.03

I have this molecule here, "COc1cc(F)cc(F)c1CNc1ccc(-c2cccnc2C)c2nncn12" , and I need its recorded pIC50.
7.70

***
Item COc1cccc(F)c1CNc1ccc(-c2cncc(C(C)O)c2)c2nncn12 (centres unmarked) has what recorded pIC50?
6.79

Field request: pIC50 | item: "COc1cccc(F)c1CNc1ccc(-c2cnc(F)cc2C)c2nncn12"
8.02

###

# Tested Target: wild type PRC2 (wtPRC2) complex (Homo sapiens, UniProt O75530)
# Method Description: EED LC-MS assay (SAH production by PRC2)
# Type: biochemical
# Condition Info: read-out: (b) IC50, EED LC-MS Qualified
Measurement Type: IC50

Example cases with answers are listed next.
Need IC50 of "COc1ccccc1CNc1ccc(-c2ccc(Cn3ccnc3)cc2)c2nncn12" , thanks.
420 nM

Quick one: IC50 of "COc1ccccc1CNc1ccc(-c2ccc(C(=O)N(C)C)cc2)c2nncn12" ?
305 nM

# evaluate next
Which IC50 value is on record for "COc1ccccc1CNc1ccc(-c2cccc(CN(C)C)c2)c2nncn12" ?
291 nM
